# targetOfAssay: CYP 1A2 (Homo sapiens)
# Sequence (P05177 whole entry): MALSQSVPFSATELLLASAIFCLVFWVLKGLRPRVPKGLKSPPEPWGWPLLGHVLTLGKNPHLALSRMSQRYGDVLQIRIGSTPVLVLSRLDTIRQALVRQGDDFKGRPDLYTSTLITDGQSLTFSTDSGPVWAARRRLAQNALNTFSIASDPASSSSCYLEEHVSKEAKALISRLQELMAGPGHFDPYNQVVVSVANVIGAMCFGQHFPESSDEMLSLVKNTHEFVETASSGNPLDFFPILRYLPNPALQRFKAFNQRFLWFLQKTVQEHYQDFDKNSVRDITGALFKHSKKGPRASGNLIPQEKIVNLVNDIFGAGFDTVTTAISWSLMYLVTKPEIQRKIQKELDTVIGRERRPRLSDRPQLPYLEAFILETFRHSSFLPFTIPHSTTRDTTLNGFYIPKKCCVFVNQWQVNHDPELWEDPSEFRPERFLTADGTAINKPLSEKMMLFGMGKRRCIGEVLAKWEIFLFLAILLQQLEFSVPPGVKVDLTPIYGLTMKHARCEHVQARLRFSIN
recordedMetric: pIC50
For clarity, pIC50 is expressed as the negative log10 of concentration in mol/L.

In: Would you kindly share the measured pIC50 for Cc1cc(C(=O)N2Cc3cnn(C)c3Nc3ccccc32)ccc1CNC(=O)N1CCC[C@H]1C(=S)N(C)C ?
Out: 4.29

###

# experimentNotes: distribution and clearance after i.p. injection, LC-MS/MS
# Type: in vivo
# testSettings: urine, ip; rat, 10 mg/kg i.p., 60 min; read-out: concentration in urine
recordedMetric: concentration at 60 min (µM)
A number alone suffices; assume µM.

In: Would you kindly share the measured concentration at 60 min for Cc1cc(C(=O)N2Cc3cnn(C)c3Nc3ccccc32)ccc1CNC(=O)N1CCC[C@H]1C(=S)N(C)C [LIT-001] ?
Out: 52.5
